# Protocol Text: Pharmacokinetics in mice (IP, IV, PO)
# Type: in vivo
# Details: mouse, in vivo; mice, IV 1 mg/kg; read-out: Vss
Experimental Endpoint: Vd (L/kg)
Report the value in L/kg with no unit label.

Request: Which Vd is reported for this molecule? C=CC(=O)N[C@H]1COC[C@H]1Nc1cc(-c2cccnc2Nc2c(Cl)c(OC)cc(OC)c2Cl)ncn1 [Compound 1]
Response: 0.876

---

# Protocol Text: Pharmacokinetics in mice (IP, IV, PO)
# Assay type: in vivo
# Details: in vivo, intravenous; mouse; Table 2 summary
# Description: FIG. 2A is the pharmacokinetic data of compound 1 administered by intraperitoneal injection (IP) into mice at 10 mg/kg, according to some embodiments of the present disclosure; FIG. 2B is the pharmacokinetic data of compound 1 administered by intravenous injection (IV) into mice at 1 mg/kg and per os (PO) at 5 mg/kg, according to some embodiments of the present disclosure;
Experimental Endpoint: half-life (h)
Field: numeric (h). Do not append units.

Request: What value of half-life has been recorded for this entry: C=CC(=O)N[C@H]1COC[C@H]1Nc1cc(-c2cccnc2Nc2c(Cl)c(OC)cc(OC)c2Cl)ncn1 [Compound 1]
Response: 0.52

Request: Field request: half-life | item: C=CC(=O)Nc1cccc(C)c1Nc1cc(-c2cccnc2Nc2c(Cl)c(OC)cc(OC)c2Cl)ncn1 [Compound 5, reference compound]
Response: 15

Value source: patent US12409177B2
